System: Mel-DCC-11
assay-remarks: cell viability relative to DMSO control (fraction of DMSO control); higher = less cytotoxic, active = 0.5 or less
conditions-used: 1 µM; 120 h
Outcome codes: active, inactive

compound	category
CC(=O)Nc1cccc(-n2c(=O)n(C3CC3)c(=O)c3c(Nc4ccc(I)cc4F)n(C)c(=O)c(C)c32)c1 [Trametinib]	active
CN(C)C(=N)N=C(N)N.Cl [Metformin hydrochloride]	inactive
Cl.Cl.Cl.Cl.Cl.Cl.Cl.Cl.c1cc(CN2CCCNCCNCCCNCC2)ccc1CN1CCCNCCNCCCNCC1 [AMD 3100 octahydrochloride]	inactive
COc1cc([C@@H]2c3cc4c(cc3[C@@H](O[C@@H]3O[C@@H]5CO[C@@H](c6cccs6)O[C@H]5[C@H](O)[C@H]3O)[C@H]3COC(=O)[C@H]23)OCO4)cc(OC)c1O [Teniposide]	inactive
Nc1[nH]c(=O)ncc1F [Fluorocytosine]	inactive
CNC(=O)c1ccc(N2C(=S)N(c3ccc(C#N)c(C(F)(F)F)c3)C(=O)C2(C)C)cc1F [Enzalutamide]	inactive
Nc1nc(=S)c2[nH]cnc2[nH]1 [Thioguanine]	inactive

###

System: NHEM-hTERT
assay-remarks: cell viability relative to DMSO control (fraction of DMSO control); higher = less cytotoxic, active = 0.5 or less
conditions-used: 1 µM; 120 h
Recorded cell viability for the following compounds

compound	measured-on	cell viability
Nc1ncnc2c1ncn2[C@@H]1O[C@H](CO)[C@@H](O)[C@@H]1O [Vidarabine]	NHEM-hTERT	1.02
CC(=O)O[C@@]12CO[C@@H]1C[C@H](O)[C@@]1(C)C(=O)[C@H](O)C3=C(C)[C@@H](OC(=O)[C@H](O)[C@@H](NC(=O)OC(C)(C)C)c4ccccc4)C[C@@](O)([C@@H](OC(=O)c4ccccc4)[C@H]21)C3(C)C [Docetaxel]	NHEM-hTERT	0.707
COc1ccc([C@@H]2CC(=O)c3c(O)cc(O)cc3O2)cc1O [Hesperetin]	NHEM-hTERT	0.971
CCCCc1nc2cc(/C=C/C(=O)NO)ccc2n1CCN(CC)CC [Pracinostat]	NHEM-hTERT	0.747
CC(=O)OCC(=O)[C@@]1(O)CC[C@H]2[C@@H]3CCC4=CC(=O)C=C[C@]4(C)[C@H]3[C@@H](O)C[C@@]21C [Prednisolone-21-acetate]	NHEM-hTERT	0.931
C#CCC(Cc1cnc2nc(N)nc(N)c2n1)c1ccc(C(=O)N[C@@H](CCC(=O)O)C(=O)O)cc1 (stereo partly specified) [Pralatrexate]	NHEM-hTERT	0.982

###

Tested on: Mel-DCC-11-R
assay-remarks: cell viability relative to DMSO control (fraction of DMSO control); higher = less cytotoxic, active = 0.8 or less
conditions-used: 1 µM; 120 h; vemurafenib co-treatment 0 µM
Recorded cell viability for the following compounds

compound	cell viability
C[C@H]1O[C@@H](n2cc(F)c(=O)[nH]c2=O)[C@H](O)[C@@H]1O [Doxifluridine]	1.08
CCOC(N)=O [Urethane]	0.987
O=NN(CCCl)C(=O)NCCCl [Carmustine]	0.987
Nc1nc(F)nc2c1ncn2[C@@H]1O[C@H](CO)[C@@H](O)[C@@H]1O [Fludarabine]	1.2
C[C@H](Nc1ncnc2nc[nH]c12)c1cc2cccc(Cl)c2c(=O)n1-c1ccccc1 [Duvelisib]	1.21
CC[C@@H](CO)NCCN[C@@H](CC)CO.Cl.Cl [Ethambutol dihydrochloride]	0.965
Nc1ccccc1NC(=O)c1ccc(CNC(=O)OCc2cccnc2)cc1 [Entinostat]	0.989
CO[C@H]1C(=O)[C@]2(C)[C@@H](OC)C[C@H]3OC[C@@]3(OC(C)=O)[C@H]2[C@H](OC(=O)c2ccccc2)[C@]2(O)C[C@H](OC(=O)[C@H](O)[C@@H](NC(=O)OC(C)(C)C)c3ccccc3)C(C)=C1C2(C)C [Cabazitaxel]	1.04
Cl.Cl.Cl.Cl.Cl.Cl.Cl.Cl.c1cc(CN2CCCNCCNCCCNCC2)ccc1CN1CCCNCCNCCCNCC1 [AMD 3100 octahydrochloride]	0.999
CCCCc1nc2cc(/C=C/C(=O)NO)ccc2n1CCN(CC)CC [Pracinostat]	0.699
O=c1[nH]c(=O)n([C@H]2C[C@H](O)[C@@H](CO)O2)cc1F [Floxuridine]	1.24
COc1cc2nccc(Oc3ccc(NC(=O)Nc4cc(C)on4)c(Cl)c3)c2cc1OC [Tivozanib]	1.08
Cc1coc2c1C(=O)C(=O)c1c-2ccc2c(C)cccc12 [Tanshinone I]	1.03
COc1ccc(C[C@H](N)C(=O)N[C@H]2[C@@H](O)[C@H](n3cnc4c(N(C)C)ncnc43)O[C@@H]2CO)cc1.Cl.Cl [Puromycin dihydrochloride]	0.309
CC[C@@]1(O)C(=O)OCc2c1cc1n(c2=O)Cc2cc3cc(O)ccc3nc2-1 [10-Hydroxycamptothecin]	0.478
CCc1ccc(CCOc2ccc(CC3SC(=O)NC3=O)cc2)nc1.Cl (stereo unspecified) [Pioglitazone hydrochloride]	0.921
